Biological target: T1, DLG1 PDZ2 (human DLG1 PDZ2 aa 311-407) (human, UniProt Q12959 311-407)
T1 construct: Disks large homolog 1 (DLG1), human, second PDZ domain, aa 311-407, in a modified pRSET vector (Chi et al, 2009); removal of the His tag is told only for the NMR sample of Scribble PDZ1 and for SHANK1 PDZ; also called DLG PDZ2; source: E. coli BL21 Gold (DE3), purified (Ni2+ Sepharose), dialyzed into 50 mM Tris-HCl pH 7.4
T1 sequence (Q12959 311-407): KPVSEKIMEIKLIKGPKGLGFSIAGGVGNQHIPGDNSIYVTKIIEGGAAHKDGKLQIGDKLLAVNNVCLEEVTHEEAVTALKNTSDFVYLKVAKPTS
Test: MST; FITC-labeled peptide fixed at 25-50 nM, DLG1 PDZ2 titrated (1:1 dilution series); 50 mM Tris-HCl pH 7.4, 0.1% Tween-20; KD from thermophoresis and T-Jump signal; n = 3
Conditions: both partners purified
pKd: −log10 of the molar value. Square brackets hold non-standard residues; d marks the D form. Ends that are not written are not given here. * marks the point of attachment. FITC = O=C1OC2(c3ccc(O)cc3Oc3cc(O)ccc32)c2ccc(NC(=S)*)cc21; pS = N[C@@H](COP(=O)(O)O)C(=O)O
Property measured: pKd

Recorded pKd, per entry:
>>> quantitative_readout("{FITC}-RLTETRL (also called RPS6KA2 Mimetic; source: synthetic peptide (GeneCust)) [FITC-RLTETRL, phosphomimetic (p-3) RPS6KA2 peptide]")
4.85
>>> quantitative_readout("{FITC}-RLT[pS]TRL (also called RPS6KA2 Phosphorylated; source: synthetic peptide (GeneCust)) [FITC-RLTpSTRL, p-3 phosphorylated RPS6KA2 peptide]")
4.14

1: {FITC}-KRSFIESNV (also called TANC1 Unphosphorylated; source: synthetic peptide (GeneCust)) [FITC-KRSFIESNV, unphosphorylated TANC1 peptide]
2: {FITC}-KR[pS]FIESNV (also called TANC1 Phosphorylated; source: synthetic peptide (GeneCust)) [FITC-KRpSFIESNV, p-6 phosphorylated TANC1 peptide]
3: {FITC}-RLTSTRL (C-terminal peptide of human RPS6KA2 (RLTSTRL-coo-); also called RPS6KA2 Unphosphorylated; source: synthetic peptide (GeneCust)) [FITC-RLTSTRL, unphosphorylated RPS6KA2 peptide]
Problem: Hey, quick one: sort these by pKd, low to high? Note for the reader: the ranking is given by listing the labels in the order requested.
Result: 3, 2, 1
(3: 4.02, 2: 5.21, 1: 5.57)

Ref: paper PMC6100724
